# Tested on: RARa homodimer (NR concentration 270 nM)
# ASSAY NAME: PBM binding z-score (relative to random genomic background probes); higher = stronger binding; sequences stand for … in GC…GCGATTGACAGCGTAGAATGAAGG
MEASURE: PBM binding z-score

* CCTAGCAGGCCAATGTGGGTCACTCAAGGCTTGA | -0.725
* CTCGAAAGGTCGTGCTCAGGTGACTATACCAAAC | 0.319
* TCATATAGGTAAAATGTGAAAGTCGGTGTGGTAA | 0.307
* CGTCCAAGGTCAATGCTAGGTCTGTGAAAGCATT | 0.767
* CTACCAAGGTGAACATGGTCGTTGATTACTATTC | 0.284
* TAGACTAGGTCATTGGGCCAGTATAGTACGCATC | 0.657
* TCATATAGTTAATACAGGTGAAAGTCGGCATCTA | 2.34
* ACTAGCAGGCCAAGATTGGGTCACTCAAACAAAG | -0.597
* AATAGAGGGTCACTAGGCCAGAGTAGGTACGAAT | 0.102
* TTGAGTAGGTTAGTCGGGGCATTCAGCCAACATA | 0.987
* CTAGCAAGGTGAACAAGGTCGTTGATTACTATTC | -0.493
* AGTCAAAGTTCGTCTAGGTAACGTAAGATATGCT | 0.143
* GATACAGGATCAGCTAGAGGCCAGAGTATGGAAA | -0.552
* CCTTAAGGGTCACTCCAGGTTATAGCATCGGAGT | 0.956
